Recorded measurements of MIC, one per entry
tested on: Bacillus subtilis, ATCC 23857; experiment: Minimal inhibitory concentration assay (microbroth dilution); type: cell-based; details: Bacillus subtilis, ATCC23857, read-out: Minimal Inhibitory Concentrations B. subtilis ATCC 23857
*1 amine or outer side, *2 acyl side, *3 side chain or, on linkers, in order; H or OH if unused. Where a SMILES comes first, the peptide text is derived from it. Bridges are numbered along the chain shown (N, C = ends). [ ]: non-standard residue; d: D form. The star is where a group is joined. Phe(3,5-F2) = N[C@@H](Cc1cc(F)cc(F)c1)C(=O)O; Morpholine(3S-CO) = O=C(O)[C@@H]1COCCN1; Pro(4R-Me) = C[C@H]1CN[C@H](C(=O)O)C1; Hyp = O=C(O)[C@@H]1C[C@@H](O)CN1; NH(4-Me-phenyl) = Cc1ccc(N*)cc1; aThr = C[C@H](O)[C@H](N)C(=O)O; Pip = O=C(O)[C@@H]1CCCCN1; X2 = CN1CCc2ccc(N*)cc21; CO = O=C([*:1])[*:2]
Respond with the bare value in µM.

1) C[C@@H]1C[C@H]2C(=O)O[C@@H](C)[C@H](NC(=O)[C@H](Cc3cc(F)cc(F)c3)NC(=O)Nc3ccc4c(c3)N(C)CC4)C(=O)N3CCC[C@H]3C(=O)N3CCCC[C@H]3C(=O)N[C@@H](C)C(=O)N2C1 [Compound 321] ({X2-CO}-[Phe(3,5-F2)][aThr]P[Pip]A[Pro(4R-Me)]; ester 2-C)	0.313

Continue with the next compound.
Challenge: Item: Cc1ccc(NC(=O)N[C@@H](Cc2cc(F)cc(F)c2)C(=O)N[C@H]2COC(=O)[C@@H]3C[C@@H](C)CN3C(=O)[C@H](C)NC(=O)[C@@H]3COCCN3C(=O)[C@@H]3C[C@@H](O)CN3C2=O)cc1 [Compound 317] ({NH(4-Me-phenyl)-CO}-[Phe(3,5-F2)]S[Hyp][Morpholine(3S-CO)]A[Pro(4R-Me)]; ester 2-C) Test system: Bacillus subtilis, ATCC 23857 Read-out: MIC Value: ?
Response given: 10

###

Recorded measurements of IC50, one per entry
Biological target: Sa-ClpP (Staphylococcus aureus)
Construct: made in house; host or cells: E. coli BL21(DE3)
Sequence (Q2G036 1-195): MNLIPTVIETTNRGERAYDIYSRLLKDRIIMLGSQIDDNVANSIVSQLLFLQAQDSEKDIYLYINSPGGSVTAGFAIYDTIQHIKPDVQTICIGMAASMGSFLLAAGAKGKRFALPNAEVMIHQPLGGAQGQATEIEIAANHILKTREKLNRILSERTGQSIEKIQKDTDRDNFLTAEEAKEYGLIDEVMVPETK
Experiment: ADEP displacement fluorescence polarization assay (FP probe ADEP 2591)
Format: binding
*1 amine or outer side, *2 acyl side, *3 side chain or, on linkers, in order; H or OH if unused. Where a SMILES comes first, the peptide text is derived from it. Bridges are numbered along the chain shown (N, C = ends). [ ]: non-standard residue; d: D form. The star is where a group is joined. ξ: configuration not given here. Phe(3,5-F2) = N[C@@H](Cc1cc(F)cc(F)c1)C(=O)O; Morpholine(3S-CO) = O=C(O)[C@@H]1COCCN1; NH(4-Cl-2-F-phenyl) = Fc1cc(Cl)ccc1N*; Pro(4R-Me) = C[C@H]1CN[C@H](C(=O)O)C1; Hyp = O=C(O)[C@@H]1C[C@@H](O)CN1; ξNMeThr = CNC(C(=O)O)[C@@H](C)O; aThr = C[C@H](O)[C@H](N)C(=O)O; CO = O=C([*:1])[*:2]
Respond with the bare value in µM.

Consider the reported IC50 for these molecules:
1. C[C@@H]1C[C@H]2C(=O)O[C@@H](C)[C@H](NC(=O)[C@H](Cc3cc(F)cc(F)c3)NC(=O)Nc3ccc(Cl)cc3F)C(=O)N3CCC[C@H]3C(=O)N(C)C([C@@H](C)O)C(=O)N[C@@H](C)C(=O)N2C1 (stereo partly drawn) [Compound 313] ({NH(4-Cl-2-F-phenyl)-CO}-[Phe(3,5-F2)][aThr]P[ξNMeThr]A[Pro(4R-Me)]; ester 2-C)	7.3
2. C[C@@H]1C[C@H]2C(=O)OC[C@H](NC(=O)[C@H](Cc3cc(F)cc(F)c3)NC(=O)Nc3ccc4c(c3)OCO4)C(=O)N3C[C@H](O)C[C@H]3C(=O)N3CCCCC3C(=O)N[C@@H](C)C(=O)N2C1 (stereo partly drawn)	4.27

Continue with the next molecule.
Challenge: Would you mind telling me what IC50 value was observed for C[C@@H]1C[C@H]2C(=O)O[C@@H](C)[C@H](NC(=O)[C@H](Cc3cc(F)cc(F)c3)NC(=O)Nc3ccc(Cl)cc3F)C(=O)N3C[C@H](O)C[C@H]3C(=O)N3CCOC[C@H]3C(=O)N[C@@H](C)C(=O)N2C1 [Compound 316] ({NH(4-Cl-2-F-phenyl)-CO}-[Phe(3,5-F2)][aThr][Hyp][Morpholine(3S-CO)]A[Pro(4R-Me)]; ester 2-C) ?
Response given: 6.9

###

Biological target: Sa-ClpP (Staphylococcus aureus, UniProt Q2G036)
Construct: made in house; host or cells: E. coli BL21(DE3)
Sequence (Q2G036 1-195): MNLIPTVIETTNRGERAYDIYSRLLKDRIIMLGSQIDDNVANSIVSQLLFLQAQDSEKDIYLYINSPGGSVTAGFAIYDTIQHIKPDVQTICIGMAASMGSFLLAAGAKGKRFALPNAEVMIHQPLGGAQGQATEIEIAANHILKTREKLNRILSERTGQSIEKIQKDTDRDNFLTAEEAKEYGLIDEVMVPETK
Test: Casein-BODIPY assay, second described ClpP activation method (EnzCheck Protease Assay, 384 well)
Assay type: biochemical, S. aureus
Conditions: values marked †: second described ClpP activation assay
*1 amine or outer side, *2 acyl side, *3 side chain or, on linkers, in order; H or OH if unused. Where a SMILES comes first, the peptide text is derived from it. Bridges are numbered along the chain shown (N, C = ends). [ ]: non-standard residue; d: D form. The star is where a group is joined. Phe(3,5-F2) = N[C@@H](Cc1cc(F)cc(F)c1)C(=O)O; NH(4-OCF3-phenyl) = FC(F)(F)Oc1ccc(N*)cc1; Pro(4S-Me) = C[C@@H]1CN[C@H](C(=O)O)C1; Pro(4R-Me) = C[C@H]1CN[C@H](C(=O)O)C1; NMeT = CN[C@H](C(=O)O)[C@@H](C)O; NH(4-Me-phenyl) = Cc1ccc(N*)cc1; aThr = C[C@H](O)[C@H](N)C(=O)O; CO = O=C([*:1])[*:2]
Recorded measurements of EC50, one per entry
Respond with the bare value in nM.

Consider the reported EC50 for these compounds:
1. Cc1ccc(NC(=O)N[C@@H](Cc2cc(F)cc(F)c2)C(=O)N[C@@H]2C(=O)N3CCC[C@H]3C(=O)N(C)[C@@H]([C@@H](C)O)C(=O)N[C@@H](C)C(=O)N3C[C@H](C)C[C@H]3C(=O)O[C@H]2C)cc1 [Compound 38] ({NH(4-Me-phenyl)-CO}-[Phe(3,5-F2)][aThr]P[NMeT]A[Pro(4R-Me)]; ester 2-C)	330
2. Cc1ccc(NC(=O)N[C@@H](Cc2cc(F)cc(F)c2)C(=O)N[C@@H]2C(=O)N3CCC[C@H]3C(=O)N(C)[C@@H]([C@@H](C)O)C(=O)N[C@@H](C)C(=O)N3C[C@@H](C)C[C@H]3C(=O)O[C@H]2C)cc1 [Compound 35] ({NH(4-Me-phenyl)-CO}-[Phe(3,5-F2)][aThr]P[NMeT]A[Pro(4S-Me)]; ester 2-C)	480

Continue with the next compound.
Challenge: Would you mind telling me what EC50 value was observed for C[C@H]1C[C@H]2C(=O)O[C@@H](C)[C@H](NC(=O)[C@H](Cc3cc(F)cc(F)c3)NC(=O)Nc3ccc(OC(F)(F)F)cc3)C(=O)N3CCC[C@H]3C(=O)N(C)[C@@H]([C@@H](C)O)C(=O)N[C@@H](C)C(=O)N2C1 [Compound 36] ({NH(4-OCF3-phenyl)-CO}-[Phe(3,5-F2)][aThr]P[NMeT]A[Pro(4S-Me)]; ester 2-C) ?
Response given: 430

###

test system: Bacillus subtilis, ATCC 23857; test: Minimal inhibitory concentration assay (microbroth dilution); assay type: cell-based; conditions: Bacillus subtilis, ATCC23857, read-out: Minimal Inhibitory Concentrations B. subtilis ATCC 23857
*1 amine or outer side, *2 acyl side, *3 side chain or, on linkers, in order; H or OH if unused. Where a SMILES comes first, the peptide text is derived from it. Bridges are numbered along the chain shown (N, C = ends). [ ]: non-standard residue; d: D form. The star is where a group is joined. ξ: configuration not given here. Phe(3,5-F2) = N[C@@H](Cc1cc(F)cc(F)c1)C(=O)O; Pro(4R-Me) = C[C@H]1CN[C@H](C(=O)O)C1; ξPro(4S-Me) = C[C@@H]1CNC(C(=O)O)C1; NH(4-Me-phenyl) = Cc1ccc(N*)cc1; ξNMeThr = CNC(C(=O)O)[C@@H](C)O; aThr = C[C@H](O)[C@H](N)C(=O)O; NMeA = CN[C@@H](C)C(=O)O; CO = O=C([*:1])[*:2]; ξP = O=C(O)C1CCCN1
Recorded measurements of MIC, one per entry
Respond with the bare value in µM.

Challenge: Would you mind telling me what MIC value was observed for Cc1ccc(NC(=O)N[C@@H](Cc2cc(F)cc(F)c2)C(=O)N[C@H]2COC(=O)[C@@H]3C[C@@H](C)CN3C(=O)[C@H](C)NC(=O)C([C@@H](C)O)N(C)C(=O)[C@@H]3CCCN3C2=O)cc1 (stereo partly drawn) [Compound 322] ({NH(4-Me-phenyl)-CO}-[Phe(3,5-F2)]SP[ξNMeThr]A[Pro(4R-Me)]; ester 2-C) ?
Response given: 0.078

Challenge: Would you mind telling me what MIC value was observed for Cc1ccc(NC(=O)N[C@@H](Cc2cc(F)cc(F)c2)C(=O)N[C@@H]2C(=O)N3CCCC3C(=O)N(C)[C@@H](C)C(=O)N[C@@H](C)C(=O)N3C[C@@H](C)CC3C(=O)O[C@H]2C)cc1 (stereo partly drawn) [Compound 26] ({NH(4-Me-phenyl)-CO}-[Phe(3,5-F2)][aThr][ξP][NMeA]A[ξPro(4S-Me)]; ester 2-C) ?
Response given: 0.03

Challenge: Would you mind telling me what MIC value was observed for C[C@@H]1C[C@H]2C(=O)OC[C@H](NC(=O)[C@H](Cc3ccccc3)NC(=O)Nc3ccc4ccn(C)c4c3)C(=O)N3CCC[C@H]3C(=O)N3CCCC[C@H]3C(=O)N[C@@H](C)C(=O)N2C1 ?
Response given: 2.5

Challenge: Would you mind telling me what MIC value was observed for Cc1ccc(NC(=O)N[C@@H](Cc2cc(F)cc(F)c2)C(=O)N[C@@H]2C(=O)N3CCCC3C(=O)N(C)[C@@H](C)C(=O)N[C@@H](C)C(=O)N3CCCC3C(=O)O[C@H]2C)cc1 (stereo partly shown) [Compound 25] ({NH(4-Me-phenyl)-CO}-[Phe(3,5-F2)][aThr][ξP][NMeA]A[ξP]; ester 2-C) ?
Response given: 0.02
